Where these numbers come from: BigSolDB 2.1

Conditions: in ethyl acetate, 288.15 K
value type: solubility (mole fraction)

compound="N#CC(c1ccc(Cl)cc1)c1c(Cl)cc(-n2ncc(=O)[nH]c2=O)cc1Cl (stereo unspecified)" numeric_readout=0.00634

###

Conditions: in methanol, 323.15 K
value type: solubility (mole fraction)

molecule="N#CC(c1ccc(Cl)cc1)c1c(Cl)cc(-n2ncc(=O)[nH]c2=O)cc1Cl (stereo unspecified)" value_type="solubility (mole fraction)" numeric_readout=0.00737

###

Conditions: in acetone, 293.15 K
value type: solubility (mole fraction)

compound="N#CC(c1ccc(Cl)cc1)c1c(Cl)cc(-n2ncc(=O)[nH]c2=O)cc1Cl (stereo unspecified)" numeric_readout=0.0162
